Entry source: patent US5726325A

We begin with a simple list: items and their reported IC50.
System: detrusor muscle
method notes: Test Example 1: relaxation of guinea pig bladder strips contracted with 50 mM KCl
Type: cell-based, guinea pig (male albino Hartley)
experimental parameters: Cavia porcellus; contraction induced by 50 mM KCl; concentration decreasing detrusor contraction by 50%
Entry rule: numbers only, all in µM.

Query block: # input compound: C[C@](O)(C(=O)Nc1ccc2c(c1)OCc1occc1C2=O)C(F)(F)F [Compound 37] ; wanted: its IC50
Result block: 4.3

Query block: Item under review: CC(O)(C(=O)Nc1cccc2c1C(=O)c1occc1CO2)C(F)(F)F (stereo not drawn) [Compound 15] . Reported IC50?
Result block: 7.1

Query block: Which IC50 value is on record for CC(O)(C(=O)Nc1ccc2c(c1)CCc1ccccc1C2=O)C(F)(F)F (stereo not drawn) [Compound 54] ?
Result block: 3.8

Query block: Looking for the measured IC50 of CC(O)(C(=O)Nc1ccc2c(c1)OCc1ccsc1C2=O)C(F)(F)F (stereo not drawn) [Compound 8] , can you help?
Result block: 5.2

Query block: What IC50 value was documented for this compound, C[C@](O)(C(=O)Nc1cccc2c1C(=O)c1ccoc1CO2)C(F)(F)F [Compound 35] ?
Result block: 31

Query block: Report IC50 for CC(O)(C(=O)Nc1cccc2ccc3ccsc3c(=O)c12)C(F)(F)F (stereo not drawn) [Compound 63] please.
Result block: 3.3

Query block: Would you mind telling me what IC50 value was observed for CC(O)(C(=O)Nc1ccc2c(c1)OCc1occc1C2=O)C(F)(F)F (stereo not drawn) [Compound 10] ?
Result block: 10

Query block: Need IC50, item CC(O)(C(=O)Nc1cccc2c1C(=O)c1cccc(F)c1CO2)C(F)(F)F (stereo not drawn) [Compound 20]
Result block: 2.3

Query block: Quick check: IC50 of COc1ccc(NC(=O)C(C)(O)C(F)(F)F)c2c1OCc1ccsc1C2=O (stereo not drawn) [Compound 27] ?
Result block: 4.8

----------
System: detrusor muscle
method notes: Test Example 1: relaxation of guinea pig bladder strips contracted with 50 mM KCl
Type: cell-based, guinea pig (male albino Hartley)
experimental parameters: Cavia porcellus; contraction induced by 50 mM KCl; concentration decreasing detrusor contraction by 50%
// reported IC50 per item

Reference set, count: 10
[[record]]
compound = "C[C@](O)(C(=O)Nc1ccc2c(c1)C(=O)c1sccc1CO2)C(F)(F)F"
attribute_measured = "IC50"
val = "> 10 µM"

[[record]]
compound = "CC(O)(C(=O)Nc1ccc2c(c1)C(=O)c1ccccc1CC2)C(F)(F)F (stereo not drawn)"
attribute_measured = "IC50"
val = "> 10 µM"

[[record]]
compound = "CC(O)(C(=O)Nc1ccc2c(c1)C(=O)c1sccc1CO2)C(F)(F)F (stereo not drawn)"
attribute_measured = "IC50"
val = "> 10 µM"

[[record]]
compound = "Cc1cc2c(cc1NC(=O)C(C)(O)C(F)(F)F)OCc1ccccc1C2=O (stereo not drawn)"
attribute_measured = "IC50"
val = "2.2 µM"

[[record]]
compound = "CC(O)(C(=O)Nc1ccc2c(c1)C(=O)c1ccccc1CO2)C(F)(F)F (stereo not drawn)"
attribute_measured = "IC50"
val = "2.2 µM"

[[record]]
compound = "CC(O)(C(=O)Nc1ccc2c(c1)OCc1ccccc1C2=O)C(F)(F)F (stereo not drawn)"
attribute_measured = "IC50"
val = "3.6 µM"

[[record]]
compound = "CC(O)(C(=O)Nc1cccc2c1C(=O)c1ccccc1-2)C(F)(F)F (stereo not drawn)"
attribute_measured = "IC50"
val = "2.6 µM"

[[record]]
compound = "CC(O)(C(=O)Nc1cccc2c1C(=O)c1sccc1CO2)C(F)(F)F (stereo not drawn)"
attribute_measured = "IC50"
val = "2.4 µM"

[[record]]
compound = "C[C@@](O)(C(=O)Nc1cccc2c1C(=O)c1ccoc1CO2)C(F)(F)F"
attribute_measured = "IC50"
val = "8.3 µM"

[[record]]
compound = "CC(O)(C(=O)Nc1cc2c(cc1Br)-c1ccccc1C2=O)C(F)(F)F (stereo not drawn)"
attribute_measured = "IC50"
val = "3.8 µM"


Query block: Tell me the measured IC50 of CC(O)(C(=O)Nc1ccc2c(c1)[S+]([O-])Cc1ccccc1C2=O)C(F)(F)F (stereo not drawn) , please.
Result block: 7.8 µM

Query block: Query (compound): CC(O)(C(=O)Nc1ccc2c(c1)C(=O)c1cc(Br)ccc1-2)C(F)(F)F (stereo not drawn) ; field requested: IC50
Result block: 3.5 µM

Query block: Give the measured IC50 of CC(O)(C(=O)Nc1ccc2c(c1)OCc1c(F)cccc1C2=O)C(F)(F)F (stereo not drawn) .
Result block: 4.3 µM

Query block: Requested read-out: IC50. Entry: CC(O)(C(=O)Nc1ccc2c(c1)SCc1ccsc1C2=O)C(F)(F)F (stereo not drawn)
Result block: > 10 µM

Query block: Fill in the blank: the reported IC50 of CC(O)(C(=O)Nc1ccc2c(=O)c3ccccc3ccc2c1)C(F)(F)F (stereo not drawn) is ____.
Result block: 9.3 µM

Query block: Dear colleague, I am looking for the recorded IC50 of the following compound: CC(O)(C(=O)Nc1ccc2c(c1)SCc1occc1C2=O)C(F)(F)F (stereo not drawn)
Result block: 3.5 µM
